target: recombinant SHIP2 phosphatase domain (Homo sapiens); construct: 100 ng of purified His-tagged recombinant SHIP2 phosphatase domain; His tag; experiment: SHIP2 activity measurement, malachite green phosphate assay; type: biochemical; settings: purified His-tagged SHIP2 phosphatase domain, 100 μM PI(3,4,5)P3, n = 3; read-out: max. inhibition of SHIP2 activity
Sequence (O15357 419-732 limits assumed): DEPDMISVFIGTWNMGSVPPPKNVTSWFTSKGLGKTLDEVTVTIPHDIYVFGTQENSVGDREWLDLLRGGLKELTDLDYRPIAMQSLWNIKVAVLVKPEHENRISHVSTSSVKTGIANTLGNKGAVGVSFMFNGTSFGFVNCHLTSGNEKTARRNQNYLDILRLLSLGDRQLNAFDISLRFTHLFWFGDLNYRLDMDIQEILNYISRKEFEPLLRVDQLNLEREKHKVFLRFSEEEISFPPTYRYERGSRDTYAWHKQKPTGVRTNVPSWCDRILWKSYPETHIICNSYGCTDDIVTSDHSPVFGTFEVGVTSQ
Consider the following molecules and their measured Emax readings.
Just the number please, in %, no unit attached.

Req: Using the record for O=S(=O)(Nc1ccc(F)cc1Br)c1ccc(F)c(F)c1F [Compound 8] , report its Emax.
Resp: 10

Req: What do you have for CN(c1ccc(F)cc1F)S(=O)(=O)c1cccs1 [Compound 12] ?
Resp: 5

Req: Another molecule: CN(c1ccccc1)S(=O)(=O)c1ccc(F)c(F)c1F [Compound 4]
Resp: 12

Req: For O=S(=O)(Nc1ccc(F)cc1Br)c1ccoc1 [Compound 9, 2′-Bromo-4′-fluoro-3-furansulfonanilide] then?
Resp: 9

Req: Also CN(c1ccc(F)cc1F)S(=O)(=O)c1ccc(F)c(F)c1F [Compound 11] , if possible.
Resp: 45

***
Req: Request the reported Emax associated with CN(c1ccccc1)S(=O)(=O)c1ccc2ccccc2c1 [Compound 3, N-Methyl-2-naphthalenesulfonanilide]
Resp: 15

Req: Another molecule to check: CN(c1ccccc1)S(=O)(=O)c1cccs1 [Compound 6, N-Methyl-2-thiophenesulfonanilide]
Resp: 11

Req: Same question, Cc1ccc(S(=O)(=O)Nc2ccc(F)cc2Br)cc1 [Compound 7] this time
Resp: 17

Req: Please answer likewise for O=S(=O)(Nc1ccc(F)cc1Br)c1cccs1 [Compound 10]
Resp: 45

Req: Check CN(c1ccccc1)S(=O)(=O)c1ccoc1 [Compound 5, N-Methyl-3-furansulfonanilide] too.
Resp: 3

---

Overview of reported IC50 across a group of molecules:
target: recombinant SHIP2 phosphatase domain (Homo sapiens); construct: 100 ng of purified His-tagged recombinant SHIP2 phosphatase domain; His tag; experiment: SHIP2 activity measurement, malachite green phosphate assay; details: purified His-tagged SHIP2 phosphatase domain, 100 μM PI(3,4,5)P3, four-parameter curve-fit

Example entries and their recorded answers appear below.
Req: Reported IC50, molecule CN(c1ccc(F)cc1F)S(=O)(=O)c1ccc(F)c(F)c1F : ____
Resp: 7.07 µM

Req: Okay, and O=S(=O)(Nc1ccc(F)cc1Br)c1cccs1 ?
Resp: 41.2 µM

Req: Please answer likewise for Cc1ccc(S(=O)(=O)Nc2ccc(F)cc2Br)cc1
Resp: > 50 µM

Req: Another: CN(c1ccccc1)S(=O)(=O)c1ccc2ccccc2c1 [Compound 3, N-Methyl-2-naphthalenesulfonanilide]
Resp: > 50 µM

Req: Entry to check: CN(c1ccccc1)S(=O)(=O)c1cccs1 [Compound 6, N-Methyl-2-thiophenesulfonanilide]
Resp: > 50 µM

Consider now this further molecule.
Req: Given the molecule CN(c1ccccc1)S(=O)(=O)c1ccc(F)c(F)c1F , what is its reported IC50?
Resp: > 50 µM
